EXPERIMENTAL_SYSTEM: HIV-RT (Human immunodeficiency virus type 1 group M subtype B, UniProt P04585)
Construct: 1 unit/mL of HIV-RT (Worthington Biochemical Corp., Freehold, N.J.); purchased Worthington Biochemical Corp., Freehold, N.J
EXPERIMENT: Checkerboard combination of lavendamycin analogs with AZT-triphosphate in HIV-RT enzyme assay (Chou and Talalay)
Type: biochemical
CONDITION_SET: analogue 0.75 μM + AZT 0.01 μM, Trial 1
MEASUREMENT_TYPE: Combination index
// response body must contain only the number

// solved cases for Combination index follow
COMPOUND	MEASUREMENT_TYPE	RESULT_NUMBER
CCCCOC(=O)c1cc2c([nH]c3ccccc32)c(-c2ccc3c(n2)C(=O)C(NC(=O)CCC)=CC3=O)n1	Combination index	0.86
CCCCCCCCOC(=O)c1cc2c([nH]c3ccccc32)c(-c2ccc3c(n2)C(=O)C(N)=CC3=O)n1	Combination index	0.64
CC(=O)NC1=CC(=O)c2ccc(-c3nc(C(=O)OCCOP(=O)(O)O)cc4c3[nH]c3ccccc34)nc2C1=O	Combination index	0.64
CC(=O)NC1=CC(=O)c2ccc(-c3nc(C(=O)O)cc4c3[nH]c3ccccc34)nc2C1=O	Combination index	0.59
COC(=O)c1nc(-c2ccc3c(n2)C(=O)C(NC(C)=O)=CC3=O)c2[nH]c3ccccc3c2c1C	Combination index	1.20

// below: Combination index requested for another compound
Kindly note the recorded Combination index for CC(=O)NC1=CC(=O)c2ccc(-c3nc(C(N)=O)cc4c3[nH]c3ccccc34)nc2C1=O [Compound 16, 7-N-Acetyldemethyllavendamycin Amide] , which is 1.0
